- measured_on: human muscarinic M1 receptor (Homo sapiens, UniProt P11229)
- Sequence (P11229 1-460): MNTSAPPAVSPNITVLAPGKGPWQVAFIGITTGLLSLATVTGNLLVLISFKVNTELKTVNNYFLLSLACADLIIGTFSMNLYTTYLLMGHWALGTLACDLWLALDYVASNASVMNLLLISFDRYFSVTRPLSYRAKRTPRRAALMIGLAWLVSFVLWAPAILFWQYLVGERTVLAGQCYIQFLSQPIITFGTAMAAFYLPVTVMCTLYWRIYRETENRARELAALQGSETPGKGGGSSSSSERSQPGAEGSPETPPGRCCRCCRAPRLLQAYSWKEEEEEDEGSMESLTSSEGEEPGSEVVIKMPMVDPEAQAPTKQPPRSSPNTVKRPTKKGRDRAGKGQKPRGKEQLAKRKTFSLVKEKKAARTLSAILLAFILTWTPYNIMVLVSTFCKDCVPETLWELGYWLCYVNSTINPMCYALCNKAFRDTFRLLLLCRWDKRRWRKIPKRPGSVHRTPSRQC
- run_description: Alphascreen Surefire phospho-ERK1/2 functional assay, M1
- Format: cell-based
- stated_conditions: CHO, read-out: M1 % Emax cf. ACh, CHO cells stably expressing human M1; Emax relative to ACh
measured_parameter: Emax (%)

>>> reading("CCOC(=O)N[C@H]1CCN(C2CCC3(CC2)C(=O)Nc2ccccc23)C1 (single isomer, unassigned) [2-1 isomer 1]")
74
>>> reading("N#CC1(c2ccc(F)cn2)CCC(N[C@@H]2CC[C@H](c3nc(C(F)(F)F)no3)C2)CC1 (single isomer, unassigned) [28-1 Isomer 2]")
59
>>> reading("CCOC(=O)N1CCCN(C2CCC3(CC2)C(=O)Nc2ccc(OC)cc23)CC1 (single isomer, unassigned) [4-12 isomer 1]")
107
>>> reading("C#CCOC(=O)N1CCCN(C2CCC(C#N)(c3ccc(OC)cn3)CC2)CC1 (single isomer, unassigned) [3-31 Isomer 1]")
91
>>> reading("CC#CCOC(=O)N1CCCN(C2CCC(C#N)(c3ccc(OC)cn3)CC2)CC1 (single isomer, unassigned) [3-32 Isomer 1]")
106
>>> reading("COc1ccc(C2(C#N)CCC(N3CCC4(CC(c5nc(C)no5)C4)C3)CC2)nc1 (single isomer, unassigned) [21-4 Isomer 4]")
47

[1] CCOC(=O)N1CCCN(C2CCC(C#N)(c3ccccc3Cl)CC2)CC1 (mixture of isomers) [3-4 mixture of isomers]
[2] Cc1noc([C@H]2CC[C@@H](NC3CCC(C#N)(c4ccccn4)CC3)C2)n1 (single isomer, unassigned) [19-1 Isomer 2]
Between 1 and 2 , which one has the lower reported Emax value? State the label of the item chosen.
2
(2: 45%, 1: 86%)
